# tgt: NEDD8-activating enzyme E1 catalytic subunit (Homo sapiens)
# assay_remarks: Inhibition of recombinant human untagged NAEalpha/N-terminal His-tagged NAEbeta expressed in Bac-to-Bac expression system using FLAG-tagged NEDD8 as substrate after 90 mins in presence of GST-tagged Ubc12 by HTRF assay
pIC50: −log10 of the molar value.
Would you mind telling me the reported pIC50 of each entry?

The molecule identified as `COCCNc1ncnc2c1ncn2[C@@H]1O[C@H](CNS(N)(=O)=O)[C@@H](O)[C@H]1O` registered its pIC50 at ≥ 6.00

The molecule identified as `NS(=O)(=O)OC[C@H]1O[C@@H](n2cnc3c(CCc4ccccc4)ncnc32)[C@H](O)[C@@H]1O` registered its pIC50 at 6.00 to 7.00

The molecule identified as `NS(=O)(=O)OC[C@H]1O[C@@H](n2cnc3c(C#Cc4cccc(F)c4)ncnc32)[C@H](O)[C@@H]1O` registered its pIC50 at 6.00 to 7.00

The molecule identified as `CC(=O)NCc1ccccc1CNc1ncnc2c1ncn2[C@@H]1O[C@H](COS(N)(=O)=O)[C@@H](O)[C@H]1O` registered its pIC50 at 6.00 to 7.00

The molecule identified as `CC(C)Cc1ncnc2c1ncn2[C@@H]1C[C@H](COS(N)(=O)=O)[C@@H](O)[C@H]1O` registered its pIC50 at ≥ 6.00

The molecule identified as `NS(=O)(=O)OC[C@H]1O[C@@H](n2cnc3c(-c4ccco4)ncnc32)[C@H](O)[C@@H]1O` registered its pIC50 at 6.00 to 7.00

* * *

Would you mind telling me the reported pIC50 of each entry?
# tgt: NEDD8-activating enzyme E1 catalytic subunit (Homo sapiens, UniProt Q8TBC4)
# Sequence (Q8TBC4 whole entry): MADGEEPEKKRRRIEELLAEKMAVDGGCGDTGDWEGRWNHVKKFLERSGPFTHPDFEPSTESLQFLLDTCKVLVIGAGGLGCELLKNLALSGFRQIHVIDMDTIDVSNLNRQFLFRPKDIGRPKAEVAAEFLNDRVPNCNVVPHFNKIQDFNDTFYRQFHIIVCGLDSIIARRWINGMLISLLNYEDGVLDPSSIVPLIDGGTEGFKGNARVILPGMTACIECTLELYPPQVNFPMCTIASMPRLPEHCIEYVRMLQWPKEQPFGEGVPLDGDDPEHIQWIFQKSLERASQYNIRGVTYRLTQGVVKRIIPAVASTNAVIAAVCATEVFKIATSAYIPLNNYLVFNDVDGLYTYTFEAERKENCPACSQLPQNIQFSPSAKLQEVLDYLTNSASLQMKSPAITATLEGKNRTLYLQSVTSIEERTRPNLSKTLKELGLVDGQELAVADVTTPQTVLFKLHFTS
# assay_remarks: Inhibition of recombinant human untagged NAEalpha/N-terminal His-tagged NAEbeta expressed in Bac-to-Bac expression system using FLAG-tagged NEDD8 as substrate after 90 mins in presence of GST-tagged Ubc12 by HTRF assay
pIC50: −log10 of the molar value.

The compound identified as `NS(=O)(=O)OC[C@H]1O[C@@H](n2cnc3c(-c4cccc(-n5cccn5)c4)ncnc32)[C@H](O)[C@@H]1O` registered its pIC50 at 6.00 to 7.00

The compound identified as `NS(=O)(=O)CC[C@H]1O[C@@H](n2cnc3c(NC(c4ccccc4)c4ccccc4)ncnc32)[C@H](O)[C@@H]1O` registered its pIC50 at 6.00 to 7.00

The compound identified as `NS(=O)(=O)OC[C@H]1O[C@@H](n2cnc3c(NCCN4CCN(Cc5ccccc5)CC4)ncnc32)[C@H](O)[C@@H]1O` registered its pIC50 at 6.00 to 7.00

The compound identified as `NS(=O)(=O)NC[C@H]1O[C@@H](n2cnc3c(NCc4csc5ccccc45)ncnc32)[C@H](O)[C@@H]1O` registered its pIC50 at ≥ 6.00

The compound identified as `NS(=O)(=O)OC[C@H]1O[C@@H](n2cnc3c(NC(=O)c4ccccc4)ncnc32)[C@H](O)[C@@H]1O` registered its pIC50 at 6.00 to 7.00

The compound identified as `NS(=O)(=O)OC[C@H]1O[C@@H](n2cnc3c(CC4Cc5ccccc5C4)ncnc32)[C@H](O)[C@@H]1O` registered its pIC50 at 6.00 to 7.00

The compound identified as `NS(=O)(=O)OC[C@H]1O[C@@H](n2cnc3c(NC(=O)Nc4ccccc4)ncnc32)[C@H](O)[C@@H]1O` registered its pIC50 at 6.00 to 7.00

The compound identified as `Cc1cnc(CNc2ncnc3c2ncn3[C@@H]2O[C@H](CNS(N)(=O)=O)[C@@H](O)[C@H]2O)cn1` registered its pIC50 at ≥ 6.00

The compound identified as `CO[C@@H]1[C@H](O)[C@@H](COS(N)(=O)=O)O[C@H]1n1cnc2c(N[C@H]3CCc4ccccc43)ncnc21` registered its pIC50 at 6.00 to 7.00

The compound identified as `CCCc1ncnc2c1ncn2[C@@H]1C[C@H](COS(N)(=O)=O)[C@@H](O)[C@H]1O` registered its pIC50 at 6.00 to 7.00

The compound identified as `NS(=O)(=O)OC[C@H]1O[C@@H](n2cnc3c(Cc4ccc(F)cc4)ncnc32)[C@H](O)[C@@H]1O` registered its pIC50 at ≥ 6.00

The compound identified as `NS(=O)(=O)OC[C@H]1C[C@@H](n2cnc3c(N[C@H]4CCc5ccccc54)ncnc32)[C@H](O)[C@@H]1O` registered its pIC50 at 6.00 to 7.00
